# credit: paper PMC12736293

ASSAY_DETAILS: in vitro
CONDITION_NOTES: liver microsomes
OUTCOME_MEASURE: half-life (h)

{"columns": ["SUBSTANCE", "OUTCOME_MEASURE", "UNIT_LABEL", "DATA_VALUE"],
 "data": [
  ["Ac-IEELSKKIEELSKKIEELSKKIEELSKKIEELSKK-NH2 [EK35S]", "half-life", "h", 2.22]
]}
